Provenance of the data: PubChem BioAssay (NCI)

Tested on: NCI/ADR-RES ovarian
Assay: NCI tumour cell line growth inhibition, 48 h
property-measured: TGI

S=C1N(/N=C/c2c3ccccc3cc3ccccc23)C(=Nc2ccccc2)C(=Nc2ccccc2)N1c1ccccc1 = > 100 µM
COc1cc2c(ccc3c4cc(OC)c(OC)cc4c[n+](C)c23)cc1O = > 75 µM
c1csc(-c2cn3nc(-c4c[nH]c5ccccc45)sc3n2)c1 = > 100 µM
C=CCC1(O)c2ccccc2C(=O)c2c(NCCN(CC(=O)OCC)CC(=O)OCC)cccc21 (stereo not given) = > 100 µM
c1cc2n(n1)CCN2 = 6590 µM
COc1c(O)cc2oc(-c3ccc(O)cc3)cc(=O)c2c1O = > 100 µM
COc1ccc(-n2cnc3c2NC(C)(C)N=C3C(N)=O)c(OC)c1 = > 100 µM
C=CCOC(=O)NC1C(OC(C)[C@@H](NC(=O)OCc2ccccc2)C(=O)OC(C)(C)C)OC(COC(C)=O)C(OC(C)=O)C1OC(C)=O (stereo not given in full) = > 100 µM

Would you mind listing TGI for each of the following molecules?
1. CCOC(=O)c1cn2c(n1)sc1c(Cl)c(Cl)ccc12
2. COc1cccc2c1ccc1nc3cccc(C(=O)N[C@H](C)CN(C)C)c3nc12
3. O=S(Nc1ccccc1)c1cccc(Cl)c1 (stereo not given)
4. CN(C)CC(CC1=C(CC(CN(C)C)N(C)C)CCC1)N(C)C (stereo not given)

Response:
1: 97.9 µM; 2: 0.554 µM; 3: > 100 µM; 4: > 100 µM
